Each recorded value in this set is attributed to patent US7297704B2.

Biological target: Human 5-HT1A Receptor (Homo sapiens)
Construct: expressed in transfected cells; host or cells: CHO cells
Sequence (P08908 whole entry): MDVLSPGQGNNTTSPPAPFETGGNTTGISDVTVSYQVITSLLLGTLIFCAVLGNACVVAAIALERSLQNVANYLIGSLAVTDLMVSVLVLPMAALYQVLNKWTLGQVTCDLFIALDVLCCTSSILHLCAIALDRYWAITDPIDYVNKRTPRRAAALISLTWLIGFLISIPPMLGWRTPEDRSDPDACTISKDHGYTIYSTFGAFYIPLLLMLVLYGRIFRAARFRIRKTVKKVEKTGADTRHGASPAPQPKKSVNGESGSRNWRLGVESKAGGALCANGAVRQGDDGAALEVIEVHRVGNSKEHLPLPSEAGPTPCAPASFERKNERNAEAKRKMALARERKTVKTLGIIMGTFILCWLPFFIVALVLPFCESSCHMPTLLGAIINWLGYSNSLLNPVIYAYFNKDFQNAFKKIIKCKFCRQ
Assay: cAMP RIA in human 5-HT1A receptor cell line
Type: cell-based
Details: superscript c; forskolin stimulated cAMP, CHO cells; read-out: c-AMP, (Emax)^c
Counter-ions that a name gives are not always drawn.
Mark rule met only for Emax values smaller than 70%; exact matches and larger values are rule not met.

# strict comparison: is reported Emax < 70%? input = Cc1ccc2c3c(ccc2n1)OC[C@H](CNC1CCc2c([nH]c4ccccc24)C1)O3.Cl.Cl (mixture of isomers) [Example 43, dihydrochloride] rule met

# strict comparison: is reported Emax < 70%? input = Cc1ccc2c3c(ccc2n1)OC[C@H](CN(C[C@@H]1CCc2[nH]c4ccc(F)cc4c2C1)C1CCCC1)O3 [Example 59, monohydrochloride monohydrate] rule not met

# strict comparison: is reported Emax < 70%? input = Cc1ccc2c3c(ccc2n1)OC[C@H](CNCC[C@@H]1CCc2[nH]c4ccc(F)cc4c2C1)O3 (single isomer, unassigned) [Example 41, dihydrochloride] rule not met

# strict comparison: is reported Emax < 70%? input = Cc1ccc2c3c(ccc2n1)OC[C@H](CN[C@@H]1CCc2c([nH]c4ccc(F)cc24)C1)O3 (single isomer, unassigned) [Example 47, dihydrochloride] rule met

# strict comparison: is reported Emax < 70%? input = CCCN(CC1CCc2[nH]c3ccc(F)cc3c2C1)C[C@H]1COc2ccc3nc(C)ccc3c2O1 (some centres unmarked) [Example 51, dihydrochloride dihydrate] rule met

# strict comparison: is reported Emax < 70%? input = Cc1ccc2c3c(ccc2n1)OC[C@H](CN[C@@H]1CCc2c([nH]c4ccccc24)C1)O3 (single isomer, unassigned) [Example 44, dihydrochloride] rule not met

# strict comparison: is reported Emax < 70%? input = Cc1ccc2c3c(ccc2n1)OC[C@H](CN(C[C@H]1CCc2[nH]c4ccc(F)cc4c2C1)C1CCCC1)O3 [Example 63, monohydrochloride monohydrate] rule not met

# strict comparison: is reported Emax < 70%? input = Cc1ccc2c3c(ccc2n1)OC[C@H](CNCCC1CCc2[nH]c4ccc(F)cc4c2C1)O3 (mixture of isomers) [Example 40, dihydrochloride] rule not met

###

Exercise: state measured Ki for each of the compounds provided.
Where a name gives a salt, the structure may show the parent alone.
Record the value in nM, omitting the unit from your answer.

Fill in the recorded Ki for this compound, with Human 5-HT1A Receptor (Homo sapiens) as test system: Cc1ccc2c3c(ccc2n1)OC[C@H](CNCC1CCc2[nH]c4cccc(F)c4c2C1)O3.Cl.Cl (stereo partly drawn) [Example 11, dihydrochloride] 16.7

Fill in the recorded Ki for this compound, with Human 5-HT1A Receptor (Homo sapiens) as test system: Cc1ccc2c3c(ccc2n1)OC[C@H](CNC1CCc2c([nH]c4ccccc24)C1)O3.Cl.Cl (mixture of isomers) [Example 43, dihydrochloride] 432

Fill in the recorded Ki for this compound, with Human 5-HT1A Receptor (Homo sapiens) as test system: Cc1ccc2c3c(ccc2n1)OC[C@H](CN(CC1CC1)CC1CCc2[nH]c4ccc(F)cc4c2C1)O3 (stereo partly drawn) [Example 52, dihydrochloride dihydrate] 936

Fill in the recorded Ki for this compound, with Human 5-HT1A Receptor (Homo sapiens) as test system: Cc1ccc2c3c(ccc2n1)OC[C@H](CNCC1CCc2sc4ccc(F)cc4c2C1)O3 (single isomer, unassigned) [31 diastereomer 2] 3.67

Fill in the recorded Ki for this compound, with Human 5-HT1A Receptor (Homo sapiens) as test system: Cc1ccc2c3c(ccc2n1)OC[C@H](CNC1CCc2c([nH]c4ccc(F)cc24)C1)O3 (mixture of isomers) 231

Fill in the recorded Ki for this compound, with Human 5-HT1A Receptor (Homo sapiens) as test system: Cc1ccc2c3c(ccc2n1)OC[C@H](CNCC1CCc2c([nH]c4ccc(F)cc24)C1)O3 (stereo partly drawn) 2.23
